tested on: DU145 (human prostate cancer cells); assay: MTT cancer cell growth inhibition; format: cell-based; conditions: Homo sapiens, DU-145, 72 h, DU145 cells, MTT, 72 hours incubation; read-out: GI50 Du1
Measure: GI50 (nM)

{"columns": ["Smiles structure", "Measure", "Numeric result"],
 "data": [
  ["C=C1NC(=O)c2cc(SC)cc(n2)CNC(=O)C[C@@H](/C=C/CCSC(C)=O)OC(=O)[C@H](C(C)C)NC1=O", "GI50", 60],
  ["C/C=C1\\NC(=O)c2cc(SCC)cc(n2)CNC(=O)C[C@@H](/C=C/CCSC(=O)CCCCCC)OC(=O)[C@H](C(C)C)NC1=O", "GI50", 20]
]}

(P) C/C=C1\NC(=O)c2ccc(SC)c(n2)CNC(=O)C[C@@H](/C=C/CCSC(C)=O)OC(=O)[C@H](C)NC1=O
(Q) C/C=C1\NC(=O)c2cc(SC)cc(n2)CNC(=O)C[C@@H](/C=C/CCSC(C)=O)OC(=O)[C@H](Cc2cccc3ccccc23)NC1=O
(R) C/C=C1\NC(=O)c2nc(ccc2SCC)CNC(=O)C[C@@H](/C=C/CCSC(=O)CCCCCCC)OC(=O)[C@H](C(C)C)NC1=O
# desc sort on GI50 across 3 molecules Output spec: a listing of the labels in the requested order.
Q, P, R
(Q: 50 nM, P: 30 nM, R: 20 nM)

---

system: BGC-823 (human gastric cancer cells); assay: MTT cancer cell growth inhibition; type: cell-based; conditions: Homo sapiens, BGC-823, 72 h, MTT, 72 hours incubation; read-out: GI50 BG
Measure: GI50 (nM)

{"columns": ["Smiles structure", "Result unit", "GI50"],
 "data": [
  ["C/C=C1\\NC(=O)c2nc(ccc2F)CNC(=O)C[C@@H](/C=C/CCSC(C)=O)OC(=O)[C@@H](C)NC1=O", "nM", 20],
  ["C/C=C1\\NC(=O)c2ccc(F)c(n2)CNC(=O)C[C@@H](/C=C/CCSC(C)=O)OC(=O)[C@H](CCCCN)NC1=O", "nM", 30],
  ["CC(C)=C1NC(=O)c2cccc(n2)CNC(=O)C[C@@H](/C=C/CCS)OC(=O)[C@H](C(C)C)NC1=O", "nM", 50],
  ["C/C=C1\\NC(=O)c2cc(F)cc(n2)CNC(=O)C[C@@H](/C=C/CCS)OC(=O)[C@H](CCCCNC(=O)OCC2c3ccccc3-c3ccccc32)NC1=O", "nM", 190],
  ["C/C=C1\\NC(=O)c2ccc(F)c(n2)CNC(=O)C[C@@H](/C=C/CCS)OC(=O)[C@H](CC)NC1=O", "nM", 30],
  ["C/C=C1\\NC(=O)c2ccc(F)c(n2)CNC(=O)C[C@@H](/C=C/CCSC(C)=O)OC(=O)[C@H](CCCCNC(=O)OCC2c3ccccc3-c3ccccc32)NC1=O", "nM", 50],
  ["C/C=C1\\NC(=O)c2cccc(n2)CNC(=O)C[C@@H](/C=C/CCS)OC(=O)[C@H](Cc2ccc(O)cc2)NC1=O", "nM", 50],
  ["C/C=C1\\NC(=O)c2cc(F)cc(n2)CNC(=O)C[C@@H](/C=C/CCSC(C)=O)OC(=O)[C@H](Cc2ccc(O)cc2)NC1=O", "nM", 20],
  ["C/C=C1\\NC(=O)c2nc(ccc2F)CNC(=O)C[C@@H](/C=C/CCSC(=O)CCCC)OC(=O)[C@H](C(C)C)NC1=O", "nM", 50]
]}

(a) C/C=C1\NC(=O)c2cc(F)cc(n2)CNC(=O)C[C@@H](/C=C/CCS)OC(=O)[C@H](C)NC1=O
(b) C/C=C1\NC(=O)c2cccc(n2)CNC(=O)C[C@@H](/C=C/CCS)OC(=O)[C@H](Cc2cccc3ccccc23)NC1=O
Name the one with the greater GI50 value, either a or b as given. Answer = label.
a
(a: 70 nM, b: 40 nM)
